From: patent US20140148454A1

- testedOn: KCNQ2/3 channels (Homo sapiens, UniProt O43525+O43526)
- procedureSummary: Fluorescence assay using a voltage sensitive dye (fluorimetry)
- conditions: CHO-K1 cells expressing KCNQ2/3 channels; voltage-sensitive dye; read-out: Fluorimetry EC50/IC50
pEC50: −log10 of the molar value.
measuredProperty: pEC50

| compound | testedOn | measuredProperty | recordedValue |
| --- | --- | --- | --- |
| CCSc1nc(N2CCOCC2)nc(C)c1C(=O)NCc1cccc(F)c1 | KCNQ2/3 channels (Homo sapiens, UniProt O43525+O43526) | pEC50 | 6.85 |
| CN(c1nc(C(F)(F)F)c(C(=O)NCc2cccc(OC(F)(F)F)c2)s1)C1CCOCC1 | KCNQ2/3 channels (Homo sapiens, UniProt O43525+O43526) | pEC50 | 5.96 |
| CC(NC(=O)c1sc(N(C)C2CCOCC2)nc1C(F)(F)F)c1cccc(OC(F)(F)F)c1 (stereo not shown) | KCNQ2/3 channels (Homo sapiens, UniProt O43525+O43526) | pEC50 | 5.90 |
| CCSc1cc(N2CCOCC2)nc(C)c1C(=O)NCc1ccc(Cl)cc1 | KCNQ2/3 channels (Homo sapiens, UniProt O43525+O43526) | pEC50 | 6.25 |
